Measured %Inh of individual entries
# Test system: PIK3C2B;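 also: KINOMEscan kinase panel screen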
# condition.description: concentration: 1 μM, replicates: in singlicate; n = 1
parameter.measured: %Inh (%)

compound | system.name | test.result
Cc1c(Cn2c(C)c(C)n3c(=O)cc(N4CCOCC4)nc23)cccc1C(F)(F)F [GSK2328680] | PIK3C2B | 4
CNCc1ccc2nc(NC(=O)c3ccc(C(C)(C)C)cc3)cn2c1 | PIK3C2B | 91.5
FC(F)(F)c1ccccc1-c1cc(-c2c[nH]nc2-c2ccccn2)ccn1 [GW679396] | PIK3C2B | 0
Fc1ccc(-c2nc3n(c2-c2ccncc2)CCS3)cc1 [GI98581] | PIK3C2B | 92.7
CS(=O)(=O)Cc1ccc(Nc2nccc(-c3c(-c4cccc(NC(=O)C5CCCCC5)c4)nn4ncccc34)n2)cc1 [GSK350559] | PIK3C2B | 0
c1ccc(-c2ccnc3[nH]ccc23)cc1 [SB-693578] | PIK3C2B | 0
Cc1cccc2c(-c3ccncn3)c(-c3ccc(F)cc3)nn12 [GW515532] | PIK3C2B | 0
Nc1cccc(-c2ccc3c(N)n[nH]c3c2)n1 [GSK2192730] | PIK3C2B | 5
COc1ccc(-c2coc3ccc(-c4nnc(C)o4)cc23)cc1 | PIK3C2B | 0
Cc1ccc(NC(=O)Nc2ccc(Cl)cc2)cc1-c1ccc(C(=O)Nc2ccncc2)cc1 [GSK1398472] | PIK3C2B | 0
Cc1ccc(NC(=O)c2ccc(Cl)cc2)cc1-c1ccc(C(=O)Nc2ccncc2)cc1 [GSK1398467] | PIK3C2B | 0
Nc1ncnc2occ(-c3ccc4c(c3)CCN4C(=O)Cc3cc(F)ccc3F)c12 [GSK2645446] | PIK3C2B | 14
COc1ccc2cc(-c3nc(-c4ccccc4C(C)C)[nH]c3-c3ccncc3)ccc2c1 [SB-660566] | PIK3C2B | 0
Cc1ccccc1-c1cc(-c2c[nH]nc2-c2ccccn2)ccn1 [GW680061] | PIK3C2B | 0
COc1cccc(CNC(=O)NC2CCN(c3ccnc(Nc4ccc(F)cc4)n3)C2)c1 (stereo not drawn) [GSK1379723] | PIK3C2B | 0
O=C1NC(=O)C(c2ccc(Cl)cc2)=C1Nc1cccc(Cl)c1 [SB-317651] | PIK3C2B | 13
COc1ccc(Nc2nccc(N3CCC(NC(=O)c4cc5ccccc5s4)C3)n2)cc1 (stereo not drawn) [GSK1379738] | PIK3C2B | 0
COC(=O)C(NC(=O)NC1CCN(c2ccnc(Nc3ccc(F)cc3)n2)C1)c1ccccc1 (stereo not drawn) [GSK1379712] | PIK3C2B | 14
